B1: CRYL1 (parent)
chain: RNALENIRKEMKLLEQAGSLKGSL

Variants of: B1
Assay: protein stability index of a GFP-peptide fusion (GPS, HEK-293T) (PSI 1-6); higher = more stable;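 further: lentivirally expressed fusions sorted by FACS into six bins by GFP to DsRed ratio, PSI derived from sequencing read proportions per bin multiplied by bin number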
Conditions: c terminus: a fixed tail appended
readout: protein stability index
Answer using only a numeral; do not append any unit.

Quick one: protein stability index of RNALENIRKEMKLLEQAFSLKGSL [G18F] ? 2.13

Also RNALANIRKEMKLLEQAGSLKGSL [E5A] , if possible. 2.68

Also RNALENIRKEMKLLEQAGSLFGSL [K21F] , if possible. 2.35

Also RNALENIMKEMKLLEQAGSLKGSL [R8M] , if possible. 2.92

Also RNALENIRKEMKLLEQAGSLKMSL [G22M] , if possible. 2.27

Also RNALENIRKEMKLLEQAGSLKGDL [S23D] , if possible. 3.48

Also RNALENIRKEVKLLEQAGSLKGSL [M11V] , if possible. 3.23

Also RNALENIRKEMKLLEQAGSLKLSL [G22L] , if possible. 2.02

Also RNALENIRNEMKLLEQAGSLKGSL [K9N] , if possible. 3.12

Also RNALENVRKEMKLLEQAGSLKGSL [I7V] , if possible. 3.53

Also RNALENIRKEMKLLEQAGSLEGSL [K21E] , if possible. 3.93

Also RNAAENIRKEMKLLEQAGSLKGSL [L4A] , if possible. 3.93

Also RNALENNRKEMKLLEQAGSLKGSL [I7N] , if possible. 4.37

Also RNALENIRKEMKLAEQAGSLKGSL [L14A] , if possible. 3.77

Also RNALENIRCEMKLLEQAGSLKGSL [K9C] , if possible. 2.29

Also RNALENIRKEMQLLEQAGSLKGSL [K12Q] , if possible. 3.31

Also RNNLENIRKEMKLLEQAGSLKGSL [A3N] , if possible. 3.75

Also RNAEENIRKEMKLLEQAGSLKGSL [L4E] , if possible. 4.65

Also RNALENIRKEMKLLEQAVSLKGSL [G18V] , if possible. 2.8

Also RNRLENIRKEMKLLEQAGSLKGSL [A3R] , if possible. 3.98

Also RNALENIRKEMKLLEQAGSLKVSL [G22V] , if possible. 2.15

Also RNALENIRKEMKLLEQIGSLKGSL [A17I] , if possible. 2.71
